- System: CAKI-1
- ASSAY_PROCEDURE: NCI tumour cell line growth inhibition, 48 h
Active and inactive are the calls of the source. Rule as the data show it: active = GI50 up to about 1.1 µM and inactive = higher.
OBSERVATION_TYPE: GI50

{"MOLECULE": "CC1(C)OC(=O)C(=C2CC(c3ccccc3)c3ccccc32)C(=O)O1 (stereo not given)", "GI50": "> 100 µM (inactive)"}
{"MOLECULE": "CCOC(=O)c1csc(NC(=O)CN(C)C)n1", "GI50": "> 100 µM (inactive)"}
{"MOLECULE": "COC(=O)CCC(=O)c1ccc2c(c1)CC1(C2)Cc2ccc3c(c2C1)CCCC3=O (stereo not given)", "GI50": "16.4 µM (inactive)"}

*Q* Give GI50 for the following molecule: CO[C@@H]1C[C@H]2[C@@H]3CC[C@H]([C@H](C)COC(C)=O)[C@@]3(C)CC[C@@H]2[C@@]2(C)CC[C@H]3C[C@]312
*A* > 100 µM (inactive)

*Q* Give GI50 for the following molecule: CCOC(=O)/C=C1\CCCC12OCCO2
*A* > 100 µM (inactive)

*Q* Give GI50 for the following molecule: O=[N+]([O-])c1cc2c(c3nonc13)OCCCCO2
*A* 14.3 µM (inactive)

*Q* Give GI50 for the following molecule: CCOC(=O)c1cc2nc3ccccc3c(=O)n2c2ccccc12
*A* > 10 µM (inactive)

*Q* Give GI50 for the following molecule: CN1CCN(CCCN2c3ccccc3Sc3ccc(C(F)(F)F)cc32)CC1
*A* 10.9 µM (inactive)

*Q* Give GI50 for the following molecule: C[C@@H]1CC(=O)C2CCCC1C2=O (stereo not given in full)
*A* > 100 µM (inactive)

*Q* Give GI50 for the following molecule: COC(C/C=C\C=C\CC/C=C/CC(C)/C=C/C(=C\C(=O)O)CC(=O)O)/C(C)=C\C=C(/C)C(=O)O (stereo not given)
*A* > 100 µM (inactive)
